Could you please report measured EC50 for the items listed next?
- Tested on: EFM-19 cells
- Protocol Summary: Proliferation assay EFM-19 (Alamar Blue, 144 h)
- Assay type: cell-based
- Assay Conditions: Homo sapiens, EFM19, breast carcinoma, read-out: proliferation assays
Numeric answer plus unit only.

Some solved cases for reference:
| Compound | EC50 |
| --- | --- |
| CN(C)c1ccc2cc(C(=O)NS(=O)(=O)c3ccccc3-c3ccccc3)oc2c1 [Example 14] | 0.223 µM |
| CCCOc1ccccc1S(=O)(=O)NC(=O)c1cc2ccc(N(C)C)cc2o1 [Example 23] | 0.155 µM |

Now let's try a different one.
Sample CCOc1ccccc1S(=O)(=O)NC(=O)c1cc2ccc(N(C)C)cc2o1 [Example 19] ; EC50 observed: 0.105 µM

---

- Tested Target: Recombinant human His-tagged Kat6a protein (amino acids 194-810) (Homo sapiens (Human), UniProt Q92794)
- Sequence (Q92794 194-810): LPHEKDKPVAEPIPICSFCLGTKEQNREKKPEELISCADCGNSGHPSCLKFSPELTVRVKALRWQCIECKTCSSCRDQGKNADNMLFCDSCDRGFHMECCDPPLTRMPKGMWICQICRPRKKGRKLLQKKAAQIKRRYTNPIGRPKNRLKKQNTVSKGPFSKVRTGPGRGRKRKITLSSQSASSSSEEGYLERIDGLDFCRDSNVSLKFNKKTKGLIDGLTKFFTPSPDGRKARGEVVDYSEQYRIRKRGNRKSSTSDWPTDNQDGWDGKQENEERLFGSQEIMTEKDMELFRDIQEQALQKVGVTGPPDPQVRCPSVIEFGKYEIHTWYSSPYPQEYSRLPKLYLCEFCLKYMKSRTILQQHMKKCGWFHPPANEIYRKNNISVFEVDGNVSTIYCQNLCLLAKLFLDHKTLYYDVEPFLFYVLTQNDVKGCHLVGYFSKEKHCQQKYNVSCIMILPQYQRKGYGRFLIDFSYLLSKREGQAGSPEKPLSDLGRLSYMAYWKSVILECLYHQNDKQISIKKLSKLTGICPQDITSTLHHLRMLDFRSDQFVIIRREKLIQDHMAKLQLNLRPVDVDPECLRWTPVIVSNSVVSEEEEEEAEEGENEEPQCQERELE
- Protocol Summary: Kat6a activity assay (TR-FRET, acetylation of biotinylated Histone-H4-derived peptide)
- Assay Conditions: 60 mins at 22° C., read-out: KAT6A-DPF/HAT domain IC50 [mol/l] (arithmetic mean)
Label fulfilled when IC50 is strictly below 3 µM; otherwise label not fulfilled.

| Molecule | Class Assignment |
| --- | --- |
| CCc1ncnc(OC)c1S(=O)(=O)NC(=O)c1cc2ccc(N(C)C)cc2o1 [Example 131] | fulfilled |
| CN(c1ccccc1)c1ccc2cc(C(=O)NS(=O)(=O)c3ccccc3)oc2c1 [Example 7] | not fulfilled |
| CN(C)c1ccc2cc(C(=O)NS(=O)(=O)c3ccccc3-c3ccccc3)sc2c1 [Example 48] | fulfilled |

Consider CCN(C)c1ccc2cc(C(=O)NS(=O)(=O)c3ccccc3)oc2c1 [Example 2] . Does its IC50 lie strictly below 3 µM? not fulfilled

Consider COc1cc(C)c(Cl)cc1S(=O)(=O)NC(=O)c1cc2ccc(N(C)C)cc2o1 [Example 138] . Does its IC50 lie strictly below 3 µM? fulfilled

Consider CCc1ccccc1S(=O)(=O)NC(=O)c1cc2ccc(N(C)C)cc2o1 [Example 104] . Does its IC50 lie strictly below 3 µM? fulfilled

Consider CC(O)c1ccc(Cl)c(S(=O)(=O)NC(=O)c2cc3ccc(N(C)C)cc3o2)c1 (centres unmarked) [Example 163] . Does its IC50 lie strictly below 3 µM? not fulfilled

---

Could you please report measured log10 of EC50 for the items listed next?
- System: ZR-75-1 cells
- Protocol Summary: Proliferation assay ZR-75-1 (Alamar Blue, 144 h)
- Format: cell-based
- Assay Conditions: Homo sapiens, ZR-75-1, 144 h, arithmetic mean, read-out: ZR75-1 proliferation assay, EC50 [M] (arithmetic mean)
Use the decimal logarithm of EC50 (M).

| Smiles Code | Endpoint Result |
| --- | --- |
| CCOc1cccc(Br)c1S(=O)(=O)NC(=O)c1cc2ccc(N(C)C)cc2o1 | -6.45 |
| CC(C)c1ccc(OCC2CC2)c(S(=O)(=O)NC(=O)c2cc3ccc(N(C)C)cc3o2)c1 | -7.16 |
| COc1ccccc1S(=O)(=O)NC(=O)c1cc2ccc(N(C)C)cc2o1 | -6.97 |
| CNc1ccc2cc(C(=O)NS(=O)(=O)c3ccccc3-c3ccccc3)oc2c1 | -6.55 |
| CN(C)c1ccc2cc(C(=O)NS(=O)(=O)c3ccccc3OCC3CC3)oc2c1 | -6.72 |
| CCOc1c(Cl)cccc1S(=O)(=O)NC(=O)c1cc2ccc(N(C)C)cc2o1 | -6.03 |

Go through the list and state log10 of EC50 for each entry.
1. CN(C)c1ccc2cc(C(=O)NS(=O)(=O)c3ccccc3C#N)oc2c1
2. COc1ccc(C(C)(C)C)cc1S(=O)(=O)NC(=O)c1cc2ccc(N(C)C)cc2o1

1: -5.20; 2: -7.77

Recorded values, source patent US12357603B2.
